Data credit: the supplement of paper PMC9170038

Test system: MS2 coat protein
Experiment: apparent KD of MS2 coat protein; designed switch direction (-1 OFF switch, 1 ON switch): -1; higher = weaker reporter binding
Details: input ligand: FMN 200 uM
quantity: apparent KD of MS2 coat protein (µM)
# output: bare number, implied unit µM

apparent KD of MS2 coat protein recorded for this sequence, AAGUCGACGGUGAGGAUAUUGGUUGAACGACAGAUUAAGAAGGUACAUGAGGAUCACCCAUGUGGGUAACGUUG [Brourd's EX4 #76] (Eterna round: R97, puzzle: Brourd's mod of Exclusion 4) , is 0.108

apparent KD of MS2 coat protein recorded for this sequence, AGUACUAUCACGAAAGUGAUAGUACAAUUGAGCUUUUGAACAUGAGGAUCACCCAUGUCCUCAUAAGCUCGUCUUAA [Mat - Sensor v2 - var 2 - Mod - D171] (Eterna round: R96, puzzle: Sensor v2, turn-off variant 2) , is 0.0287

###

I'd appreciate it if you could supply apparent KD of MS2 coat protein values for the items below.
Test system: MS2 coat protein
Assay: apparent KD of MS2 coat protein; higher = weaker reporter binding
Details: Eterna round: R107; input ligand: theophylline 20 uM
# output: bare number, implied unit nM

Form field, apparent KD of MS2 coat protein with MS2 coat protein, item AGACAUGAGGAUCACCCAUGUAGUAUGGAUACCAGAUCCAGAUUUAUCCCUUGGCAGCUGUGGUACAGCGUUGGAUCGCUCCUAG [Exclusion - Theophylline A (Freestyle 12)] : 34.6

Form field, apparent KD of MS2 coat protein with MS2 coat protein, item CUACAUUUGUAGAAACCGGUCAACAUUAUUCGAGGACCGGUACGGCCGCCACUCGUAUAAUUUAAUACAUGAGGAUCACCCAUGU [Tryptophan A 5] : 17.3

Form field, apparent KD of MS2 coat protein with MS2 coat protein, item ACAUGAGGAUCACCCAUGUAAUGGCACGAUACCAGCUGAUCCCGUGGCCCUUGGCAGCGUCCGGUGUGGUCCGGCGGGUUGGACG [LLLMULLIN] : 22.6

Form field, apparent KD of MS2 coat protein with MS2 coat protein, item ACAUGAGGAUCACCCAUGUACAUCACCCGACGAGGACCGGUACGGCCGCCACUCGGGUAUAUAUAUACAUCGGGUGGUUUUGCAU [a15jan] : 88.4

Form field, apparent KD of MS2 coat protein with MS2 coat protein, item UAUCGUCAGACGGCCGCCACUAGAACAUGAGGAUCACCCAUGUACCCGGUCCAUUCCUCAUUAACUAGGACCGGGUCUGACGAAU [(Trp1)-(Ms2)-(T)'-(M)'-(Trp2)_Design13] : 129

Form field, apparent KD of MS2 coat protein with MS2 coat protein, item UAUCUUGCGGGCGCCCGCAAGGUUGCGGAUACCAGCGAGAUAAAUCGCCCUUGGCAGCCGAACAUGAGGAUCACCCAUGUCGGAC [Same State - Theophylline A Attempt #1 (HarryS)] : 11.8

Form field, apparent KD of MS2 coat protein with MS2 coat protein, item ACGAUACGACAUGAGGAUCACCCAUGUGAUACCAGCCUGGAAACAGGCCCUUGGCAGCACAAAUACUCCAGAAACGUAUCGAAAA [MAT - Exclusion Theophlline A - Mod of Eli - D6] : 262

Form field, apparent KD of MS2 coat protein with MS2 coat protein, item ACGCCCGCCUCACAUGAGGAUCACCCAUGUCGAGGACCGGUACGGCCGCCACUCGUCGUCGGUAAUACGGGCGUUGAAUAAUAUA [Atedon] : 14.9

Form field, apparent KD of MS2 coat protein with MS2 coat protein, item CCUAGCACACAUGAUACCAGCGACAUGAGGAUCACCCAUGUACGGCGUGUAUCGCAAGGUUGCCCUUGGCAGCAUGAUAGUGCUG [Xeerdi] : 24.7

Form field, apparent KD of MS2 coat protein with MS2 coat protein, item UACCUUAACACGGCCGCCACUCUCUAAUAGGAUCAUGGUACCGCACAUGAGGAUCACCCAUGUUUGAGGACCGGGUGUUAUGAAG [theeternabot_sameState_MS2_Trp_B_24] : 25

Form field, apparent KD of MS2 coat protein with MS2 coat protein, item GUAUGAGUUGACUGUGAGACUGGCGUGGAAGGAGCGCACGGAGGUGCAGGUAGGUCGCCACAUGAGGAUCACCCAUGUCAGGCCG [Ceedtila] : 56.4

Form field, apparent KD of MS2 coat protein with MS2 coat protein, item CAGAACAUGAGGAUCACCCAUGUAAACGACCGAGGACCGGUACGGCCGCCACUCGAUAUGUCUUGAGGGAGAUAUGGAUUCACAU [theeternabot_sameState_MS2_Trp_A_46] : 51.4

Form field, apparent KD of MS2 coat protein with MS2 coat protein, item AGAACUUUGGUGGAUACCAGCUUCUGGCCAUCCUUCAAAUACAUGAGGAUCACCCAUGUUAGCCCUUGGCAGCCAACAUAGACUG [theeternabot_exclusion_MS2_Theo_B_44] : 33

Form field, apparent KD of MS2 coat protein with MS2 coat protein, item CUCAUCCACGCGGCCGCCACUAUAUUGUGGUGUGAAUGUGACGUAUUACAUGAGGAUCACCCAUGUAGGACCGGGCGUGGAUGAG [#07 Exclusion Tryptophan B] : 86.2

Form field, apparent KD of MS2 coat protein with MS2 coat protein, item CUUGGUAGAUCCUAGCUGCCAAGAGGUGAUACCAGCAUCGAAAGAUGCCCUUGGCAGCACCAACAUGAGGAUCACCCAUGUAAUA [(MT)''-(M)'-(T')-(Theo)-(Ms2)_Design1/22_4] : 178

Form field, apparent KD of MS2 coat protein with MS2 coat protein, item UCGGGCAGAGCGGCCGCCACUGUUUGGCAUGCGGAUGAAGGAACAUGAGGAUCACCCAUGUAGAUUAGGACCGGGCUGGCGGAGA [jjhemullin] : 19.2

Form field, apparent KD of MS2 coat protein with MS2 coat protein, item GCUACAUGAGGAUCACCCAUGUAUGCGAGUCGAGGACCGGUACGGCCGCCACUCGCUUAACAUGAGGAUCACCCAUGUUACUCGC [SSTA DOUBLE!!! :-D #19] : 106

Form field, apparent KD of MS2 coat protein with MS2 coat protein, item UGGUACAUGAGGAUCACCCAUGUUCCAGAUACCAGUGUCCCGGUGCACCCUUGGCAGCUGGUGGUACAUGAGGAUCACCCAUGUG [Exclusion Theophylline A GF13] : 56.3

Form field, apparent KD of MS2 coat protein with MS2 coat protein, item UUUAAAUAGACGGCCGCCACUGGAAUUAAUACAUGAGGAUCACCCAUGUAGAGAGAAUAAUAAUACAGGACCGGGUCUUCAUGAA [SS Tryp B Tesla 1] : 22.1

Form field, apparent KD of MS2 coat protein with MS2 coat protein, item AAUAUAAAAUAAAGAAAAUUUAUAUCUGAUACCAGACUCUCAUGGGUCCCUUGGCAGCAGUAACAUGAGGAUCACCCAUGUAUUA [JR_Nu_SSTheophyA_Sub026] : 70.6

Form field, apparent KD of MS2 coat protein with MS2 coat protein, item CACAUGAGGAUCACCCAUGUCUGAACUGAAGGAGCGCUAAAUAAGGCAGGUAGGUCGCGGAAUUUUGUGUGCAUAUGCAUAUGGG [9.M] : 37.2

Form field, apparent KD of MS2 coat protein with MS2 coat protein, item ACUAGUUGUGCAGAUACCAGACAUGAGGAUCACCCAUGUUUGGGAUCUUCGGAUCUUCCUGUCCCUUGGCAGCUGUACAUCUAGA [Omei Theo B Exc v3] : 178

###

I'd appreciate it if you could supply apparent KD of K4 kissing-loop reporter values for the items below.
Tested on: K4 kissing-loop RNA reporter;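 note: bound reporter read as fluorescence of individual clusters on recovered sequencing chips by microscopy, with normalized cluster intensities fitted with a binding model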
Assay: apparent KD of K4 kissing-loop reporter; higher = weaker reporter binding
Conditions: Eterna round: R107; input ligand: arginine 13.2 mM
# output: bare number, implied unit nM

apparent KD of K4 kissing-loop reporter recorded for this sequence, UGAUACCAGACGGCCGCCACUCCCGUAAGUCAAAGACUUACGAAGAGAGUUAUCCAGUGAUGUUGGAGGACCGGGUCUGGUAUCU [FiskerMod 14 - Jieux - Exclusion - Tryptophan B] , is 199

apparent KD of K4 kissing-loop reporter recorded for this sequence, UGACUGGACUGAAGGAGCGAGGACGGUCAUAGACCGAAAUCAGUGAUGUUGAAAGAUAAACCUCAGGUAGGUCGCAGUCUAGUCU [ArgBS 1 #SwitchBubble #StaticStem] , is 918

apparent KD of K4 kissing-loop reporter recorded for this sequence, GGUAGCAUGGCGGCCGCCACUAGAUCAGUGAUGUUGAUCCCGCCGUCUUACGGCGAGUCAGAGGCUAGGACCGGGCCAUGCUACC , is 318

apparent KD of K4 kissing-loop reporter recorded for this sequence, AUUUUUUUGUCAGGAUAUUAGUGUUGGUUUGGUUUGUUAGUGAUGUUGAUAUUUGUUUUAUGUAUUUAAGAAGGGAUUUAGCGGU [wxooemullin] , is 379

apparent KD of K4 kissing-loop reporter recorded for this sequence, AAGGCAGUUCGAGGAUAUCACAUACACUCCUUGAAUCAAGGAGUGAUGUUCCUUGAAGUGUAUGCAUGAGAAGGCGAAUUGCCUU [FMN B SS t5] , is 103

apparent KD of K4 kissing-loop reporter recorded for this sequence, GUGCGGUGGAGGCUACCGCUACUCUGAGAAGGAGCGCAGAAGACUGCAGGUAGGUCGCUUAGAGCUUGCAGUGAUGUUGCAAGUU [KL-SSArg-A18] , is 135
